Listed below: TGI values for each entry.
system: ACHN renal; experiment: NCI tumour cell line growth inhibition, 48 h
readoutType: TGI

| molecule | targetUnderTest | reading |
| --- | --- | --- |
| COc1ccccc1NC(=O)C(=O)C1C(=O)Nc2ccccc2S1=O (stereo not given) | ACHN renal | > 100 µM |
| COc1cc(OC)c(/C=C/S(=O)(=O)Cc2ccc(OC)c(NCC(=O)O)c2)c(OC)c1 | ACHN renal | > 100 µM |
| CC1(C)CC2(C)OC2C2(C1)N=NC(=Nc1ccccc1)O2 (stereo not given) | ACHN renal | 6.12 µM |
| C[C@H](NC(=O)CCC(F)(F)F)C(=O)N[C@@H]1C(=O)N(CCO)c2ncccc2-c2ccccc21 | ACHN renal | > 100 µM |
| CCNC(=O)Oc1ccc(/C(=C(\C)c2ccc(Cl)cc2)c2ccc(OCCN3CCCCC3)cc2)cc1 | ACHN renal | 16.7 µM |
